The reported measurements were obtained from ChEMBL document CHEMBL3217485.

Assignment: determine reported pKi for the given compounds.
- protocol_text: Inhibition of AAC(6')-li (unknown origin)
Answers are plain numbers, as −log10 of the molar value.

CC(C)(COP(=O)(O)OP(=O)(O)OC[C@H]1O[C@@H](n2cnc3c(N)ncnc32)[C@H](O)[C@@H]1OP(=O)(O)O)[C@@H](O)C(=O)NCCC(=O)NCCSCC(=O)NC[C@H]1O[C@H](O[C@H]2[C@H](O)[C@@H](O)[C@H](N)C[C@@H]2N)[C@H](N)[C@@H](O)[C@@H]1O | 7.12

In: Could you share which pKi value was measured for CC(C)(COP(=O)(O)OP(=O)(O)OC[C@H]1O[C@@H](n2cnc3c(N)ncnc32)[C@H](O)[C@@H]1OP(=O)(O)O)[C@@H](O)C(=O)NCCC(=O)NCCSCCCCCC(=O)NC[C@H]1O[C@H](O[C@H]2[C@H](O)[C@@H](O)[C@H](N)C[C@@H]2N)[C@H](N)[C@@H](O)[C@@H]1O ?
Out: 5.28
